Each recorded value in this set is attributed to ChEMBL document CHEMBL2163192.

Target: 5-hydroxytryptamine receptor 1A (Homo sapiens)
Experiment: Inhibition of 5-HT1A receptor at 1 uM
outcome_measure: inhibition (%)

(A) CN(C)C1CCc2c(c3ccccc3n2S(=O)(=O)c2cccc(C(F)(F)F)c2)C1 (racemic)
(B) CN(C)C1CCc2c(c3ccccc3n2S(=O)(=O)c2cccc(Cl)c2)C1 (racemic)
Could you kindly indicate whether A or B has the higher inhibition value? # respond with the chosen item's label
A

###

Target: CYP2D6 (Homo sapiens, UniProt P10635)
Sequence (P10635 whole entry): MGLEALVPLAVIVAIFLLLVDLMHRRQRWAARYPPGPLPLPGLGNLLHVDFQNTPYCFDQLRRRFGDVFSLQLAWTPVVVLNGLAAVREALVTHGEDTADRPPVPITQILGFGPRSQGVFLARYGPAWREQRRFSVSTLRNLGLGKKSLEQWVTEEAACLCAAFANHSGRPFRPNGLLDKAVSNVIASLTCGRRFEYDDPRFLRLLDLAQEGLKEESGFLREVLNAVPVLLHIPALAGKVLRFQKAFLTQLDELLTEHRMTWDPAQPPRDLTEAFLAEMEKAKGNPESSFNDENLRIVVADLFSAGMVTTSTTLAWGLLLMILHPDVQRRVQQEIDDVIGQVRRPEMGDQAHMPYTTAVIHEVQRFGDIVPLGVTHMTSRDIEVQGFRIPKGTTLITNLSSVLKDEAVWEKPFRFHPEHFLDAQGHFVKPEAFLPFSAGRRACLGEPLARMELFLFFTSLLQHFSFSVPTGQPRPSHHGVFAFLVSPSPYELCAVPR
Assay: Inhibition of human CYP2D6 at 3 uM
Assay type: ADME
outcome_measure: inhibition at 3 µM (%)

CN(C)C1CCc2c(c3cc(Br)ccc3n2S(=O)(=O)c2ccccc2)C1 (racemic) = 50
CN(C)C1CCc2c(c3ccccc3n2S(=O)(=O)c2cccc(C(F)(F)F)c2)C1 (racemic) = 50
COc1ccc2c(c1)c1c(n2S(=O)(=O)c2ccccc2)CCC(N(C)C)C1 (racemic) = 50

###

Target: Sodium-dependent serotonin transporter (Homo sapiens)
Assay: Inhibition of SERT at 10 uM
outcome_measure: inhibition (%)

COc1ccc2c(c1)c1c(n2S(=O)(=O)c2ccccc2)CCC(N(C)C)C1 (racemic) = 3.35
CN(C)C1CCc2c(c3cc(Br)ccc3n2S(=O)(=O)c2ccccc2)C1 (racemic) = 2.77

(I) CN(C)C1CCc2c(c3ccccc3n2S(=O)(=O)c2cccc(Cl)c2)C1 (racemic)
(II) CN(C)C1CCc2c(c3ccccc3n2S(=O)(=O)c2cccc(C(F)(F)F)c2)C1 (racemic)
Pick one: I or II . Which one has the lower reported inhibition? # respond with the chosen item's label
I
(I: 1.49%, II: 20.7%)

###

Biological target: Sodium-dependent dopamine transporter (Homo sapiens)
Experiment: Inhibition of DAT at 10 uM
outcome_measure: inhibition (%)

Known results for compounds:
COc1ccc2c(c1)c1c(n2S(=O)(=O)c2ccccc2)CCC(N(C)C)C1 (racemic) = 6.23
CN(C)C1CCc2c(c3ccccc3n2S(=O)(=O)c2cccc(Cl)c2)C1 (racemic) = 7.21

(A) CN(C)C1CCc2c(c3cc(Br)ccc3n2S(=O)(=O)c2ccccc2)C1 (racemic)
(B) CN(C)C1CCc2c(c3ccccc3n2S(=O)(=O)c2cccc(C(F)(F)F)c2)C1 (racemic)
Could you kindly indicate whether A or B has the higher inhibition value? # respond with the chosen item's label
B
(B: 24.8%, A: 7.7%)

###

Test: Drug metabolism in rat liver microsomes
Type: ADME, Microsome
Conditions: read-out: Drug metabolism
outcome_measure: metabolised (%)

COc1ccc2c(c1)c1c(n2S(=O)(=O)c2ccccc2)CCC(N(C)C)C1 (racemic) = 74
CN(C)C1CCc2c(c3ccccc3n2S(=O)(=O)c2cccc(C(F)(F)F)c2)C1 (racemic) = 72

###

Experiment: AUC in Wistar rat at 10 mg/kg, iv
Format: ADME, organism-based
Parameters: dose 10 mg/kg, route intravenous
Settings: plasma
outcome_measure: AUC (ng·h/mL)
State just the number; it will be interpreted in ng·h/mL.

Dear colleague, I am looking for the recorded AUC of the following compound: COc1ccc2c(c1)c1c(n2S(=O)(=O)c2ccccc2)CCC(N(C)C)C1 (racemic)
2120

###

Biological target: UniProt:P35368
Sequence (P35368 whole entry): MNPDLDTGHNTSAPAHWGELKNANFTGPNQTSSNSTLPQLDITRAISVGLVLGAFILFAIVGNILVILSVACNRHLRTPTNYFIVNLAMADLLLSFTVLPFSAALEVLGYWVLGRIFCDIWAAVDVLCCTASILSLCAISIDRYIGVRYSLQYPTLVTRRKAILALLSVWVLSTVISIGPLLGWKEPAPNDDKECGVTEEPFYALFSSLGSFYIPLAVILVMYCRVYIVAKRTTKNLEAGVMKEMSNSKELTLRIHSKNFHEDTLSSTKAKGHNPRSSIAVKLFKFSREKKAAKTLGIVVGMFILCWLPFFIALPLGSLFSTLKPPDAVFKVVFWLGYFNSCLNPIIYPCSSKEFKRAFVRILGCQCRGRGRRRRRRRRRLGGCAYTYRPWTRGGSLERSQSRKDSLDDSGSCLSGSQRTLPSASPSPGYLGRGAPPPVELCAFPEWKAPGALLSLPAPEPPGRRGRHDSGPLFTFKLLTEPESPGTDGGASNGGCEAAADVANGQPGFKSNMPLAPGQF
Test: Inhibition of alpha1B adrenergic receptor at 10 uM
outcome_measure: inhibition (%)

CN(C)C1CCc2c(c3ccccc3n2S(=O)(=O)c2cccc(Cl)c2)C1 (racemic) = 7.92

(1) COc1ccc2c(c1)c1c(n2S(=O)(=O)c2ccccc2)CCC(N(C)C)C1 (racemic)
(2) CN(C)C1CCc2c(c3ccccc3n2S(=O)(=O)c2cccc(C(F)(F)F)c2)C1 (racemic)
(3) CN(C)C1CCc2c(c3cc(Br)ccc3n2S(=O)(=O)c2ccccc2)C1 (racemic)
Order each entry by recorded inhibition, climbing from the minimum. Give me the labels in the order the question wants.
1, 2, 3
(1: 5.26%, 2: 8.72%, 3: 16.2%)
